- target under test: NMDA receptors (Rattus norvegicus, UniProt P35439+Q00960)
- Construct: primary neocortical cell cultures derived from 17 day old Charles River rat embryos; endogenous in cells; host or cells: primary neocortical neurons from 17 day old rat embryos, 4-7 days in vitro
- Sequence (Q00960 27-1482, other chains not shown): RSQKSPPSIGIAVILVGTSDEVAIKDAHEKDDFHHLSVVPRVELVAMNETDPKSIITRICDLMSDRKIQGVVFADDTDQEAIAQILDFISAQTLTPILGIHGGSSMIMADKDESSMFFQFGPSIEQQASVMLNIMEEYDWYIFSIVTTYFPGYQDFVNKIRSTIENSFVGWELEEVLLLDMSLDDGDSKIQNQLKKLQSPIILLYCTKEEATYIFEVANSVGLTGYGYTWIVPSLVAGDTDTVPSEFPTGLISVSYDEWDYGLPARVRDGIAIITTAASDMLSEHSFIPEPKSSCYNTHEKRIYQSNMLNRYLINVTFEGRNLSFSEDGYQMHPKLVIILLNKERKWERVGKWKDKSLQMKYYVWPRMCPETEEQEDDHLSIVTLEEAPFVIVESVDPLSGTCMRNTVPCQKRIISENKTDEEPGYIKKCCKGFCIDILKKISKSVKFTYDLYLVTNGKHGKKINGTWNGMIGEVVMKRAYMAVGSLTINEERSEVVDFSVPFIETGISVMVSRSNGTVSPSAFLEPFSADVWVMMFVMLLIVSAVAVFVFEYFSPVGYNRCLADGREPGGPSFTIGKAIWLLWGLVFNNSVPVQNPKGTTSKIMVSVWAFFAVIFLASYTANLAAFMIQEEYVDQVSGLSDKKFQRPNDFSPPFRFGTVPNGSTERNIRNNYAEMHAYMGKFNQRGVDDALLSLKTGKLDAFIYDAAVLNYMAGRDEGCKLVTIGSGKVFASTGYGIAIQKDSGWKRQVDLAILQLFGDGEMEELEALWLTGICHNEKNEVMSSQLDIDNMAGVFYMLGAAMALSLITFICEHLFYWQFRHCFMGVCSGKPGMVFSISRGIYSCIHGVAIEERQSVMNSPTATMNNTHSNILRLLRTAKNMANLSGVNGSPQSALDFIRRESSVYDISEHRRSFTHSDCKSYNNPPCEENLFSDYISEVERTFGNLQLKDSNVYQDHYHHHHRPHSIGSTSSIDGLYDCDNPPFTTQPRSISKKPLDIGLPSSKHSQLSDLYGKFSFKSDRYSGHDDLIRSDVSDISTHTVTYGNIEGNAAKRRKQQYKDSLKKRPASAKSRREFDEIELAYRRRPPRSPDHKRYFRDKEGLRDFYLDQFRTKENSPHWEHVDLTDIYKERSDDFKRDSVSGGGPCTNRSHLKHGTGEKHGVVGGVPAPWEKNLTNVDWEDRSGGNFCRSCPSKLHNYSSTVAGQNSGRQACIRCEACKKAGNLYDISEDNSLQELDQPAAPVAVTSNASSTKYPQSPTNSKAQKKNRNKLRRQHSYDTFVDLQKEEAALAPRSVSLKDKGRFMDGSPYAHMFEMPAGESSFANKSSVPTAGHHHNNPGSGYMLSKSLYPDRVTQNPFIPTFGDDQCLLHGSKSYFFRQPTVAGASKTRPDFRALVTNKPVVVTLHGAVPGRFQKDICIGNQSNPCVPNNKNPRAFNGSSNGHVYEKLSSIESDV
- protocol description: NMDA antagonist potency in vitro by measurement of intracellular calcium concentration with a plate reader fluorimeter, primary neocortical cell cultures
- Type: cell-based
- measurement setup: rat primary neocortical cultures, 4-7 days in vitro; calcium elevation induced by 40 μM NMDA; Fluo-4; read-out: NMDA IC50
Just so you know, the groups by IC50 go like this: lower band: < 40 nM; central band: ≥ 40 nM and < 100 nM; upper band: ≥ 100 nM

{"columns": ["molecule", "assigned category"],
 "data": [
  ["O=C(c1cc2c(ccc3[nH]cnc32)[nH]1)N1CCC(Cc2ccccc2)CC1", "central band"],
  ["O=C(c1cc2c(ccc3cn[nH]c32)[nH]1)N1CCC(Cc2ccc(F)cc2)CC1", "upper band"],
  ["O=C(c1nc2cc3[nH]c(=O)oc3cc2[nH]1)N1CCC(Cc2ccccc2)CC1", "upper band"],
  ["Cc1ccc(OC2CCN(C(=O)c3cc4c(ccc5[nH]ncc54)[nH]3)CC2)cc1", "central band"],
  ["O=C(c1cc2c(ccc3cn[nH]c32)[nH]1)N1CCC(Cc2ccccc2)CC1", "central band"],
  ["Oc1ccc(OCCN2CCC(Cc3ccc(F)cc3)CC2)cc1 [Co-111103, reference compound]", "central band"],
  ["O=C(c1cc2cc3[nH]c(=O)[nH]c3cc2[nH]1)N1CCC(Cc2ccccc2)CC1", "upper band"],
  ["O=C(CCN1CCC(Cc2ccc(F)cc2)CC1)c1ccc2[nH]c(=O)oc2c1 [EMD 95885, reference compound]", "lower band"],
  ["O=C(c1cc2cc3[nH]c(=O)oc3cc2[nH]1)N1CCC(OCc2ccccc2)CC1", "central band"],
  ["O=C(c1cc2c(ccc3[nH]ncc32)[nH]1)N1CCC(Cc2ccc(F)cc2)CC1", "lower band"],
  ["Cc1ccc(CC2CCN(C(=O)c3nc4ccc(O)cc4[nH]3)CC2)cc1", "lower band"],
  ["O=C(c1cc2ccc(O)cc2[nH]1)N1CCC(Cc2ccc(F)cc2)CC1", "central band"],
  ["O=C(c1cc2c(ccc3[nH]ncc32)[nH]1)N1CCC(Cc2ccccc2)CC1", "lower band"],
  ["Cc1ccc(CC2CCN(C(=O)c3cc4c(ccc5[nH]ncc54)[nH]3)CC2)cc1", "upper band"],
  ["O=C(c1cc2c(ccc3[nH]cnc32)[nH]1)N1CCC(Cc2ccc(F)cc2)CC1", "central band"],
  ["O=C(c1nc2c(ccc3oc(=O)[nH]c32)[nH]1)N1CCC(Cc2ccccc2)CC1", "upper band"],
  ["O=C(c1cc2ccc3[nH]ccc3c2[nH]1)N1CCC(Cc2ccccc2)CC1", "upper band"]
]}
